measuredOn: thrombin (alpha-thrombin) (Homo sapiens, UniProt P00734;P00734 P00734:315-363,P00734:364-622)
assayProcedure: filter
Simple rule here: Kd less than 0.2 nM is fulfilled, otherwise not fulfilled.

Enquiry: Please check: Kd for GCTGCCTAGGTTGGGTAGGGTGGTGGCAGC (ssDNA) [ARC2170] , strictly under 0.2 nM or not?
Return: fulfilled

Enquiry: # strict comparison: is reported Kd < 0.2 nM? input = ACTGCCTAGGTTGGGTAGGGTGGTGGCAGT (XNA, 2'-OMe G23, rest DNA) [ARC2635]
Return: not fulfilled

Enquiry: Consider CUGCCUAGGTTGGGTAGGGTGGUGGCAG (XNA, 2'-OMe 1-6,23,24,26-28, rest DNA) [ARC2830] . Does its Kd lie strictly below 0.2 nM?
Return: not fulfilled

Enquiry: Check if Kd falls below 0.2 nM for TGATTAGGTTGGGTAGGGTGGTATCA (ssDNA) [ARC2840] .
Return: not fulfilled

Enquiry: Lab note: confirm whether the reported Kd for this binder is below 0.2 nM, equality not counting. binder: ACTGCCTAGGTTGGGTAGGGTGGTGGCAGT (ssDNA, PS linkage between nt 11 and 12) [ARC2654]
Return: fulfilled

Enquiry: Please state whether Kd is below 0.2 nM for ACTGCCTAGGTTGGGUAGGGTGGTGGCAGT (XNA, 2'-OMe U16, rest DNA) [ARC2628]
Return: not fulfilled

Enquiry: For this binder, is Kd lower than 0.2 nM? AUGATTAGGTTGGGTAGGGTGGTAUCAU (XNA, 2'-OMe 1-4,25-28, rest DNA) [ARC2836]
Return: not fulfilled

Enquiry: Does the reported Kd of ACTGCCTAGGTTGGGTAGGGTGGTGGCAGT (XNA, 2'-OMe C27, rest DNA) [ARC2639] stay below 0.2 nM?
Return: fulfilled

Enquiry: Determine whether this binder shows Kd lower than 0.2 nM (ties excluded): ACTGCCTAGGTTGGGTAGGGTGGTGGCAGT (XNA, 2'-OMe G4, rest DNA) [ARC2616]
Return: fulfilled

Enquiry: For CTGCCTAGGTTGGGTAGGGTGGTGGCAG (ssDNA) [ARC2171] , is the recorded Kd below the cut-off of 0.2 nM?
Return: not fulfilled

Enquiry: Does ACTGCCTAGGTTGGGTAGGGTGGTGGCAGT (ssDNA, PS linkage between nt 7 and 8) [ARC2650] have Kd strictly under 0.2 nM?
Return: not fulfilled

Enquiry: I wonder whether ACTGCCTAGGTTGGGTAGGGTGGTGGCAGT (ssDNA, PS linkage between nt 9 and 10) [ARC2652] has Kd below 0.2 nM. Can you tell?
Return: fulfilled

Enquiry: # check: Kd < 0.2 nM for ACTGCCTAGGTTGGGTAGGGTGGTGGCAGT (ssDNA, PS linkage between nt 2 and 3) [ARC2645]
Return: fulfilled

Enquiry: Criterion: Kd strictly below 0.2 nM. Is it met by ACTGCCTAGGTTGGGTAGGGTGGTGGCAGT (ssDNA, PS linkage between nt 29 and 30) [ARC2672] ?
Return: fulfilled

Enquiry: Problem: For the binder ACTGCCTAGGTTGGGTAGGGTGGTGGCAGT (ssDNA, PS between T16 and A17) [ARC2659] , is Kd under 0.2 nM?
Return: not fulfilled

Enquiry: Below 0.2 nM on Kd? Entry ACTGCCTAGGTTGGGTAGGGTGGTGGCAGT (ssDNA, PS linkage between nt 14 and 15) [ARC2657]
Return: not fulfilled

Enquiry: Quick check: does ACTGCCTAGGTTGGGTAGGGTGGUGGCAGT (XNA, 2'-OMe U24, rest DNA) [ARC2636] have Kd under 0.2 nM?
Return: fulfilled

Enquiry: Is 0.2 nM strictly greater than the binder's reported Kd? binder: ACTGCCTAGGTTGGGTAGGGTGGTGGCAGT (ssDNA, PS linkage between nt 18 and 19) [ARC2661]
Return: not fulfilled

Enquiry: Please state whether Kd is below 0.2 nM for UGAUUAGGTTGGGTAGGGTGGUAUCA (XNA, 2'-OMe 1-5,22-26, rest DNA) [ARC2841]
Return: not fulfilled

Enquiry: Please check: Kd for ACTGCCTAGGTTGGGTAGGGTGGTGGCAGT (XNA, 2'-OMe G10, rest DNA) [ARC2622] , strictly under 0.2 nM or not?
Return: fulfilled

Enquiry: Field: below-cutoff. Rule: recorded Kd strictly less than 0.2 nM. Subject: GATTAGGTTGGGTAGGGTGGTAUC (XNA, 2'-OMe 1-2,23-24, rest DNA) [ARC2850]
Return: not fulfilled

Enquiry: Confirm or reject: Kd of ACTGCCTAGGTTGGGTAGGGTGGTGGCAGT (ssDNA, PS linkage between nt 27 and 28) [ARC2670] lies strictly below 0.2 nM
Return: fulfilled

Enquiry: For CUGCCTAGGTTGGGTAGGGTGGTGGCAG (XNA, 2'-OMe 1-5,24,26-28, rest DNA) [ARC2831] , is the recorded Kd below the cut-off of 0.2 nM?
Return: not fulfilled

Enquiry: Take the binder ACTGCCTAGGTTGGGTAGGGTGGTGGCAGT (XNA, 2'-OMe A1, rest DNA) [ARC2613] and say whether its Kd is less than 0.2 nM.
Return: fulfilled

Enquiry: Record UGAUTAGGTTGGGTAGGGTGGTAUCA (XNA, 2'-OMe 1-4,23-26, rest DNA) [ARC2842] : is its Kd strictly below 0.2 nM?
Return: not fulfilled

Enquiry: hey, is Kd for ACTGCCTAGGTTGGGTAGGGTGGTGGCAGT (ssDNA, PS linkage between nt 6 and 7) [ARC2649] lower than 0.2 nM or not?
Return: not fulfilled
